The reported numbers originate from paper PMC10786891.

For each of the binders below, state its pKd.
tgt: T1, EsCas13d, nuclease-dead (Eubacterium siraeum, UniProt B0MS50, R295A;H300A;R849A;H854A)
T1 sequence: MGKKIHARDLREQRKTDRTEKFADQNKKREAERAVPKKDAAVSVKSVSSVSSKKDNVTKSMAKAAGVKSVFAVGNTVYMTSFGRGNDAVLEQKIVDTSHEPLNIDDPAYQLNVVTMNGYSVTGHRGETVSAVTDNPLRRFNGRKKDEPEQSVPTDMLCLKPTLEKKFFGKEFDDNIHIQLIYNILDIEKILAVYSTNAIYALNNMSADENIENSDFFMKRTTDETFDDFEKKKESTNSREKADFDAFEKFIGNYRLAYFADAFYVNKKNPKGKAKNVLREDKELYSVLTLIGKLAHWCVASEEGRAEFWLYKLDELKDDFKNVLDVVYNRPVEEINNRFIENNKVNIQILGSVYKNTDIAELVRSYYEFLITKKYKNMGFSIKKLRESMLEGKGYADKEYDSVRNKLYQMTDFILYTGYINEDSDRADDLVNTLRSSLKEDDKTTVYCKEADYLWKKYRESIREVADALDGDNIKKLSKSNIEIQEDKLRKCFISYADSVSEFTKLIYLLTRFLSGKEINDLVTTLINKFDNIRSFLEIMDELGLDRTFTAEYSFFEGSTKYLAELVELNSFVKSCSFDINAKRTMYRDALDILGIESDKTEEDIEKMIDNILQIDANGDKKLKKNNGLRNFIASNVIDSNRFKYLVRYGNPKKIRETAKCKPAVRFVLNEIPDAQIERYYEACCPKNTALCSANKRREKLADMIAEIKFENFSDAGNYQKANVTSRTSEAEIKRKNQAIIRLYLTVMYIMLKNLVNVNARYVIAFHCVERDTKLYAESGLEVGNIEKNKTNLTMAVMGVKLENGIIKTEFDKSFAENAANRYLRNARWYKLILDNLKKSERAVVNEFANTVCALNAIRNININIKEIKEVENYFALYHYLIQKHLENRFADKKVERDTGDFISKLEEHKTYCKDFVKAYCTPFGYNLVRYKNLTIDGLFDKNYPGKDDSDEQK
assay-comment: crRNA (strand 1, pre-loaded); Mg2+; 40 mM Tris-HCl pH 7.5, 150 mM NaCl, 6 mM MgCl2, 1 mM DTT, 0.1% Tween-20, 0.2 mg/ml BSA; 25 C; 10 min per concentration, then washed
run-conditions: tags: His6-TwinStrep-SUMO cleaved; N-terminal SNAP kept (SNAP-Surface 488); label: 3' end held by stalled T7 RNA polymerase
On this scale, pKd is minus log10 of a concentration expressed in M (mol/L).

input: Give reported pKd value for target 2 MT 5'PFS UUG 3'PFS UCU (mixed) RNA 1: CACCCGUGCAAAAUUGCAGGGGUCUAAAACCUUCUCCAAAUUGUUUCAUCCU RNA 2: GGGAAUGGAUCCACAUCUACGAAUUCUUGAGGAUGAAACAAUUUGGAGAAGUCUAGAUCGGAAGAGCACACGU
output: 7.56

input: Find the measured pKd of target 2 MT 5'PFS UCG 3'PFS CGC (mixed) RNA 1: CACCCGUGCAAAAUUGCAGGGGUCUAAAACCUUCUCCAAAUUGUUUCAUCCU RNA 2: GGGAAUGGAUCCACAUCUACGAAUUCUCGAGGAUGAAACAAUUUGGAGAAGCGCAGAUCGGAAGAGCACACGU and report it.
output: 7.52

input: Answer with reported pKd of target 1 insA 3' of 11,insA 3' of 8 (mixed) RNA 1: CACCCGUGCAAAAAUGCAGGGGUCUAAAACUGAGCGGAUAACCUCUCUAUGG RNA 2: GGGAAUGGAUCCACAUCUACGAAUUCGUACCAUAGAGAGGUAUAUACCGCUCACCGAGAUCGGAAGAGCACACGU
output: 7.40

input: In one line, give reported pKd of the entry target 1 MT 5'PFS GGC 3'PFS UCA (mixed) RNA 1: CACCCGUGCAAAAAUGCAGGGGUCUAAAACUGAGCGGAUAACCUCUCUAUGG RNA 2: GGGAAUGGAUCCACAUCUACGAAUUCGGCCCAUAGAGAGGUUAUCCGCUCAUCAAGAUCGGAAGAGCACACGU .
output: 7.77

input: Quote pKd reported for target 2 MT 5'PFS AUA 3'PFS UCC (mixed) RNA 1: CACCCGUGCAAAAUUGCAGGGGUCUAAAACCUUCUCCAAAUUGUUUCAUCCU RNA 2: GGGAAUGGAUCCACAUCUACGAAUUCAUAAGGAUGAAACAAUUUGGAGAAGUCCAGAUCGGAAGAGCACACGU please.
output: 7.81

input: Recall and state the measured pKd for target 1 insU 3' of 21,insA 3' of 19 (mixed) RNA 1: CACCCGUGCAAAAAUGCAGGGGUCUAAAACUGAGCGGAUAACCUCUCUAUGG RNA 2: GGGAAUGGAUCCACAUCUACGAAUUCGUACCUAUAAGAGAGGUUAUCCGCUCACCGAGAUCGGAAGAGCACACGU .
output: 7.26

input: // fetch pKd given entry target 1 U11G,C22A (mixed) RNA 1: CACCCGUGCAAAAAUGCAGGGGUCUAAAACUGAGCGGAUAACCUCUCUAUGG RNA 2: GGGAAUGGAUCCACAUCUACGAAUUCGUAACAUAGAGAGGGUAUCCGCUCACCGAGAUCGGAAGAGCACACGU
output: 7.41

input: Tell me measured pKd for target 2 MT 5'PFS ACA 3'PFS UAA (mixed) RNA 1: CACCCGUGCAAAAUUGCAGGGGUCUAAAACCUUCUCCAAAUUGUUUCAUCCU RNA 2: GGGAAUGGAUCCACAUCUACGAAUUCACAAGGAUGAAACAAUUUGGAGAAGUAAAGAUCGGAAGAGCACACGU please.
output: 8.37
